Values from patent US12319664B2

System: AMARE
EXPERIMENTAL_DETAILS: Pre-emergence herbicidal action against AMARE
Format: in vivo, Amaranthus retroflexus
SETUP_CONDITIONS: application rate 80 g/ha
Readings of Herbicidal action against [%] AMARE for the listed compounds
READOUT_NAME: Herbicidal action against [%] AMARE (%)

compound="CONC(=O)C1=CCC(NC(=O)C2(C)CC(c3cccc(F)c3)=NO2)C1 (mixture of isomers)" readout_name="Herbicidal action against [%] AMARE" test_value=90
compound="C=CC1(C(=O)NC2C=CC(C(=O)OCC)C2)CC(c2cc(F)cc(F)c2)=NO1 (stereo not shown)" readout_name="Herbicidal action against [%] AMARE" test_value=100
compound="CC1(C(=O)N[C@H]2C=C[C@@H](C(=O)O)C2)CC(c2cccc(F)c2)=NO1 (stereo partly shown)" readout_name="Herbicidal action against [%] AMARE" test_value=90
compound="CCOC(=O)[C@H]1C=C[C@@H](NC(=O)C2(C)CC(c3cccc(F)c3)=NO2)C1 (stereo partly shown)" readout_name="Herbicidal action against [%] AMARE" test_value=80
compound="CC1(C(=O)N[C@H]2C=C[C@@H](C(=O)N3CCCO3)C2)CC(c2cc(F)cc(F)c2)=NO1 (stereo partly shown)" readout_name="Herbicidal action against [%] AMARE" test_value=100
compound="CC1(C(=O)N[C@H]2CC=C(C(=O)O)C2)CC(c2cccc(F)c2)=NO1 (stereo partly shown)" readout_name="Herbicidal action against [%] AMARE" test_value=80
compound="CC1(C(=O)NC2C=CC(C(=O)N3CCCCO3)C2)CC(c2cc(F)cc(F)c2)=NO1 (mixture of isomers)" readout_name="Herbicidal action against [%] AMARE" test_value=100
compound="CC1(C(=O)NC2C=CC(C(=O)NS(=O)(=O)C(F)(F)F)C2)CC(c2cccc(F)c2)=NO1 (mixture of isomers)" readout_name="Herbicidal action against [%] AMARE" test_value=90
compound="C=CC1(C(=O)NC2C=CC(C(=O)OC)C2)CC(c2cc(F)cc(F)c2)=NO1 (stereo not shown)" readout_name="Herbicidal action against [%] AMARE" test_value=100
compound="CN(C)C(=O)C1=CCC(NC(=O)C2(C)CC(c3cccc(F)c3)=NO2)C1 (mixture of isomers) [IV-02]" readout_name="Herbicidal action against [%] AMARE" test_value=100

###

Tested on: POLCO
EXPERIMENTAL_DETAILS: Post-emergence herbicidal action against POLCO
Assay type: in vivo, Polygonum convolvulus
SETUP_CONDITIONS: application rate 80 g/ha, rated visually about 3 weeks after treatment
READOUT_NAME: Herbicidal action against [%] POLCO (%)

compound="COCCOC(=O)[C@@H]1C=C[C@H](NC(=O)[C@@]2(C)CC(c3cc(F)cc(F)c3)=NO2)C1 [Example I-092]" readout_name="Herbicidal action against [%] POLCO" test_value=80
compound="N#Cc1cc(F)cc(C2=NOC(C(=O)NC3C=CC(C(=O)OCCCl)C3)(C(F)(F)F)C2)c1 (mixture of isomers) [Example I-089]" readout_name="Herbicidal action against [%] POLCO" test_value=90
compound="N#Cc1cccc(C2=NOC(C(=O)NC3C=CC(C(=O)OCCCl)C3)(C(F)(F)F)C2)c1 (mixture of isomers) [Example I-088]" readout_name="Herbicidal action against [%] POLCO" test_value=90
compound="C=CC1(C(=O)NC2C=CC(C(=O)O)C2)CC(c2cc(F)cc(F)c2)=NO1 (stereo not shown) [Example I-014]" readout_name="Herbicidal action against [%] POLCO" test_value=80
compound="CCOC(=O)C1=CC[C@H](NC(=O)C2(C)CC(c3cccc(F)c3)=NO2)C1 (stereo partly shown) [III-06]" readout_name="Herbicidal action against [%] POLCO" test_value=80
compound="CN(C)NC(=O)C1=CCC(NC(=O)C2(C)CC(c3cccc(F)c3)=NO2)C1 (mixture of isomers) [IV-06]" readout_name="Herbicidal action against [%] POLCO" test_value=80
compound="CC(C)C(C#N)NC(=O)C1C=CC(NC(=O)C2(C)CC(c3cc(F)cc(F)c3)=NO2)C1 (mixture of isomers) [II-12]" readout_name="Herbicidal action against [%] POLCO" test_value=80

###

Readings of Herbicidal action against [%] POLCO for the listed compounds
Test system: POLCO
EXPERIMENTAL_DETAILS: Post-emergence herbicidal action against POLCO
Assay type: in vivo, Polygonum convolvulus
SETUP_CONDITIONS: application rate 80 g/ha, rated visually about 3 weeks after treatment
READOUT_NAME: Herbicidal action against [%] POLCO (%)

compound="CCOC(=O)[C@@H]1C=C[C@H](NC(=O)C2(C(F)(F)F)CC(c3ccccc3)=NO2)C1 (stereo partly shown)" target_under_test=POLCO readout_name="Herbicidal action against [%] POLCO" readout_units=% test_value=90
compound="C=CC1(C(=O)N[C@H]2C=C[C@@H](C(=O)OCC(F)F)C2)CC(c2cc(F)cc(F)c2)=NO1 (stereo partly shown)" target_under_test=POLCO readout_name="Herbicidal action against [%] POLCO" readout_units=% test_value=90
compound="C=CC1(C(=O)NC2C=CC(C(=O)OC)C2)CC(c2cc(F)cc(F)c2)=NO1 (mixture of isomers) [Example I-035]" target_under_test=POLCO readout_name="Herbicidal action against [%] POLCO" readout_units=% test_value=80
compound="COCCOC(=O)C1C=CC(NC(=O)C2(C(F)(F)F)CC(c3cc(F)cc(C#N)c3)=NO2)C1 (stereo not shown) [Example I-100]" target_under_test=POLCO readout_name="Herbicidal action against [%] POLCO" readout_units=% test_value=90
compound="COC(=O)[C@@H]1C=C[C@H](NC(=O)C2(C(F)(F)F)CC(c3cc(C)cc(F)c3)=NO2)C1 (stereo partly shown)" target_under_test=POLCO readout_name="Herbicidal action against [%] POLCO" readout_units=% test_value=90
compound="CC1(C(=O)N[C@H]2C=C[C@@H](C(=O)OCC(F)(F)F)C2)CC(c2cc(F)cc(F)c2)=NO1 (stereo partly shown)" target_under_test=POLCO readout_name="Herbicidal action against [%] POLCO" readout_units=% test_value=90
compound="COCCOC(=O)C1C=CC(NC(=O)C2(C(F)(F)F)CC(c3cc(F)cc(C#N)c3)=NO2)C1 (stereo not shown) [Example I-099]" target_under_test=POLCO readout_name="Herbicidal action against [%] POLCO" readout_units=% test_value=80

###

System: PHBPU
EXPERIMENTAL_DETAILS: Post-emergence herbicidal action against PHBPU
Format: in vivo, Pharbitis purpurea
SETUP_CONDITIONS: application rate 80 g/ha, rated visually about 3 weeks after treatment
Protocol: [table] 2. Post-emergence herbicidal action against harmful plants and crop plant compatibility Seeds of monocotyledonous and dicotyledonous weeds and crop plants are placed in sandy loam in plastic or wood-fibre pots, covered with soil and cultivated in a greenhouse under controlled growth conditions. 2 to 3 weeks after sowing, the test plants are treated at the one-leaf stage. […]
READOUT_NAME: Herbicidal action against [%] PHBPU

molecule="CC1(C(=O)NC2C=CC(C(=O)O)C2)CC(c2cccc(C#N)c2)=NO1 (mixture of isomers) [Example I-070]" test_value=80%
molecule="C=CC1(C(=O)NC2C=CC(C(=O)NC(C(=O)OC)C(C)C)C2)CC(c2cc(F)cc(F)c2)=NO1 (single isomer, unassigned) [II-26]" test_value=80%
molecule="CC1(C(=O)NC2C=CC(C(=O)O)C2)CC(c2cc(F)cc(C#N)c2)=NO1 (mixture of isomers) [Example I-075]" test_value=90%
molecule="CC1(C(=O)N[C@H]2C=C[C@@H](C(=O)OCC(F)(F)F)C2)CC(c2cc(F)cc(F)c2)=NO1 (stereo partly shown) [Example I-010]" test_value=90%
molecule="CCOC(=O)C1=CC[C@H](NC(=O)C2(C)CC(c3cc(F)cc(F)c3)=NO2)C1 (stereo partly shown) [III-07]" test_value=80%
molecule="COC(=O)C1=CC[C@H](NC(=O)C2(C)CC(c3cccc(F)c3)=NO2)C1 (stereo partly shown) [III-04]" test_value=90%
molecule="CC1(C(=O)N[C@H]2CC=C(C(=O)OCc3ccccc3)C2)CC(c2cc(F)cc(F)c2)=NO1 (stereo partly shown) [III-12]" test_value=90%

###

Test system: PHBPU
EXPERIMENTAL_DETAILS: Post-emergence herbicidal action against PHBPU
Type: in vivo, Pharbitis purpurea
SETUP_CONDITIONS: application rate 80 g/ha, rated visually about 3 weeks after treatment
Description: [table] 2. Post-emergence herbicidal action against harmful plants and crop plant compatibility Seeds of monocotyledonous and dicotyledonous weeds and crop plants are placed in sandy loam in plastic or wood-fibre pots, covered with soil and cultivated in a greenhouse under controlled growth conditions. 2 to 3 weeks after sowing, the test plants are treated at the one-leaf stage. […]
READOUT_NAME: Herbicidal action against [%] PHBPU (%)

molecule="C=CC1(C(=O)NC2C=CC(C(=O)OC(C)(C)C)C2)CC(c2cc(F)cc(F)c2)=NO1 (mixture of isomers) [Example I-060]" target_under_test=PHBPU readout_units=% test_value=80
molecule="C=CC1(C(=O)NC2C=CC(C(=O)OC)C2)CC(c2cc(F)cc(F)c2)=NO1 (stereo not drawn) [Example I-012]" target_under_test=PHBPU readout_units=% test_value=90
molecule="CCOC(=O)[C@@H]1C=C[C@H](NC(=O)C2(C(F)(F)F)CC(c3cc(C)cc(Cl)c3)=NO2)C1 (stereo partly drawn) [Example I-023]" target_under_test=PHBPU readout_units=% test_value=80
molecule="CC(C)C(C#N)NC(=O)C1C=CC(NC(=O)C2(C)CC(c3cc(F)cc(F)c3)=NO2)C1 (mixture of isomers) [II-12]" target_under_test=PHBPU readout_units=% test_value=80
molecule="COC(=O)C(C)(C)NC(=O)C1C=CC(NC(=O)C2(C(F)(F)F)CC(c3cc(F)cc(F)c3)=NO2)C1 (mixture of isomers) [II-36]" target_under_test=PHBPU readout_units=% test_value=90
molecule="CC1(C(=O)N[C@H]2C=C[C@@H](C(=O)OCc3ccccc3)C2)CC(c2cc(F)cc(F)c2)=NO1 (stereo partly drawn) [Example I-008]" target_under_test=PHBPU readout_units=% test_value=90
molecule="COC(=O)C1C=CC(NC(=O)C2(C(F)(F)F)CC(c3cc(Cl)cc(Cl)c3)=NO2)C1 (mixture of isomers) [Example I-039]" target_under_test=PHBPU readout_units=% test_value=80
molecule="CC(C)(C)OC(=O)[C@@H]1C=C[C@H](NC(=O)C2(C)CC(c3cc(F)cc(F)c3)=NO2)C1 (stereo partly drawn) [Example I-007]" target_under_test=PHBPU readout_units=% test_value=90
molecule="C=CC1(C(=O)NC2C=CC(C(=O)OCCCl)C2)CC(c2cc(F)cc(F)c2)=NO1 (mixture of isomers) [Example I-061]" target_under_test=PHBPU readout_units=% test_value=80
molecule="COC(=O)C1C=CC(NC(=O)C2(C(F)(F)F)CC(c3cccc(C#N)c3)=NO2)C1 (mixture of isomers) [Example I-087]" target_under_test=PHBPU readout_units=% test_value=90
molecule="C=CC1(C(=O)N[C@H]2CC=C(C(=O)OC(C)C)C2)CC(c2cc(F)cc(F)c2)=NO1 (stereo partly drawn) [III-13]" target_under_test=PHBPU readout_units=% test_value=90
molecule="COC(=O)[C@@H]1C=C[C@H](NC(=O)C2(C(F)(F)F)CC(c3cc(F)cc(C#N)c3)=NO2)C1 (single isomer, unassigned) [Example I-098]" target_under_test=PHBPU readout_units=% test_value=80
molecule="COC(=O)[C@@H]1C=C[C@H](NC(=O)C2(C(F)(F)F)CC(c3ccccc3)=NO2)C1 (stereo partly drawn) [Example I-026]" target_under_test=PHBPU readout_units=% test_value=80
molecule="COCCOC(=O)[C@@H]1C=C[C@H](NC(=O)[C@@]2(C(F)(F)F)CC(c3cc(F)cc(F)c3)=NO2)C1 [Example I-076]" target_under_test=PHBPU readout_units=% test_value=80
molecule="COC(=O)C1C=CC(NC(=O)C2(C(F)(F)F)CC(c3cc(F)cc(F)c3)=NO2)C1 (mixture of isomers) [Example I-063]" target_under_test=PHBPU readout_units=% test_value=80
molecule="CC1(C(=O)N[C@H]2C=C[C@@H](C(=O)O)C2)CC(c2cccc(F)c2)=NO1 (stereo partly drawn) [Example I-002]" target_under_test=PHBPU readout_units=% test_value=80
molecule="COC(=O)C1C=CC(NC(=O)C2(C(F)(F)F)CC(c3cc(C)cc(C(F)(F)F)c3)=NO2)C1 (mixture of isomers) [Example I-048]" target_under_test=PHBPU readout_units=% test_value=80
molecule="COC(=O)[C@H]1C=C[C@H](NC(=O)[C@@]2(C(F)(F)F)CC(c3cc(F)cc(F)c3)=NO2)C1 [Example I-062]" target_under_test=PHBPU readout_units=% test_value=80
molecule="COc1cc(OC)cc(C2=NOC(C(=O)NC3C=CC(C(=O)OCC(F)(F)F)C3)(C(F)(F)F)C2)c1 (mixture of isomers) [Example I-052]" target_under_test=PHBPU readout_units=% test_value=80
molecule="CC1(C(=O)N[C@H]2C=C[C@@H](C(=O)OCCCl)C2)CC(c2cc(F)cc(F)c2)=NO1 (stereo partly drawn) [Example I-009]" target_under_test=PHBPU readout_units=% test_value=90
molecule="CCOC(=O)[C@@H]1C=C[C@H](NC(=O)C2(C)CC(c3cccc(F)c3)=NO2)C1 (stereo partly drawn) [Example I-006]" target_under_test=PHBPU readout_units=% test_value=80
